Reference source: patent US12472272B2

Here the recorded Tissue (% ID/g): Intestine is given for each entry.
# System: PSMA-expressing LNCAP cancer xenografts
# experiment: Biodistribution of ^68Ga-labeled PSMA-targeting tracers
# Type: in vivo, mice
# assay context: 1 h post-injection
# value in % ID/g; strip the unit string

A selection of reference data follows.
molecule: O=C([O-])CN1CCN(CC(=O)[O-])CCN(CC(=O)NC[C@H]2CC[C@H](C(=O)N[C@@H](Cc3c4ccccc4cc4ccccc34)C(=O)NCCCC[C@H](NC(=O)N[C@@H](CCC(=O)O)C(=O)O)C(=O)O)CC2)CCN(CC(=O)[O-])CC1.[68Ga+3] [^68Ga-HTK03041]
recorded endpoint: Tissue (% ID/g): Intestine
measurement unit: % ID/g
value measured: 1.14
//
molecule: O=C([O-])CN1CCN(CC(=O)[O-])CCN(CC(=O)NC[C@H]2CC[C@H](C(=O)N[C@@H](Cc3ccc4ccc5cccc6ccc3c4c56)C(=O)NCCCC[C@H](NC(=O)N[C@@H](CCC(=O)O)C(=O)O)C(=O)O)CC2)CCN(CC(=O)[O-])CC1.[68Ga+3] [^68Ga-HTK03029]
recorded endpoint: Tissue (% ID/g): Intestine
measurement unit: % ID/g
value measured: 0.77
//
molecule: O=C([O-])CN1CCN(CC(=O)[O-])CCN(CC(=O)NC[C@H]2CC[C@H](C(=O)N[C@@H](Cc3ccc4cc5ccccc5cc4c3)C(=O)NCCCC[C@H](NC(=O)N[C@@H](CCC(=O)O)C(=O)O)C(=O)O)CC2)CCN(CC(=O)[O-])CC1.[68Ga+3] [^68Ga-HTK03027]
recorded endpoint: Tissue (% ID/g): Intestine
measurement unit: % ID/g
value measured: 0.44

So for CCCCCC[C@H](NC(=O)[C@H]1CC[C@H](CNC(=O)CN2CCN(CC(=O)[O-])CCN(CC(=O)[O-])CCN(CC(=O)[O-])CC2)CC1)C(=O)NCCCC[C@H](NC(=O)N[C@@H](CCC(=O)O)C(=O)O)C(=O)O.[68Ga+3] [^68Ga-HTK03026] , the logged Tissue (% ID/g): Intestine turned out to be 0.29
